target: KCNQ2/3 channels (Homo sapiens, UniProt O43525+O43526); construct: expressed in transfected cells; host or cells: CHO-K1; test: Fluorescence assay using a voltage sensitive dye (fluorimetry); type: cell-based; conditions: CHO-K1 cells expressing KCNQ2/3; plateau effect relative to saturated Retigabine (50 μM); read-out: Fluorimetry % efficacy (retigabine = 100%)
QUANTITY MEASURED: Emax (%)

> print(dat)
                                   molecule  quantity.measured  display.unit  experimental.value
1  Cc1cc(N2CCOCC2)cc(C2CC2)c1C(=O)NCC[C@@H](O)C(C)(C)C [Example 28]               Emax             %                 155
2  CCS(=O)(=O)c1cc(N2CCOCC2)cc(C)c1C(=O)NCCCC(C)(C)C [Example 9]               Emax             %                  65
3  Cc1cc(N2CCOCC2)cc(N2CC[C@@H](F)C2)c1C(=O)NCc1ccc(Cl)cc1 [Example 38]               Emax             %                 167
4  Cc1cc(N2CCOCC2)cc(C2CC2)c1C(=O)NCc1ccc(OC(F)(F)F)cc1 [Example 25]               Emax             %                 144

----------
molecular target: KCNQ2/3 channels (Homo sapiens, UniProt O43525+O43526); construct: expressed in transfected cells; host or cells: CHO-K1; assay: Fluorescence assay using a voltage sensitive dye (fluorimetry); assay type: cell-based; details: CHO-K1 cells expressing KCNQ2/3; plateau effect relative to saturated Retigabine (50 μM); read-out: Fluorimetry % efficacy (retigabine = 100%)
QUANTITY MEASURED: Emax (%)

> print(dat)
                                    compound                             target.system  quantity.measured  experimental.value
 1  CC(C)c1cc(N2CCOCC2)cc(F)c1C(=O)NCc1ccc(Cl)cc1  KCNQ2/3 channels (Homo sapiens, UniProt O43525+O43526)               Emax                 196
 2  CCc1cc(N2CCOCC2)cc(C)c1C(=O)NCc1ccc(Cl)cc1  KCNQ2/3 channels (Homo sapiens, UniProt O43525+O43526)               Emax                 169
 3  C=C(C)c1cc(N2CCOCC2)cc(C)c1C(=O)NCc1ccc(C(F)(F)F)cc1  KCNQ2/3 channels (Homo sapiens, UniProt O43525+O43526)               Emax                 118
 4  COc1cc(N2CCOCC2)cc(C)c1C(=O)NCc1ccc(Cl)cc1  KCNQ2/3 channels (Homo sapiens, UniProt O43525+O43526)               Emax                 147
 5  Cc1cc(N2CCOCC2)cc(C(C)C)c1C(=O)NCc1ccc(Cl)cc1  KCNQ2/3 channels (Homo sapiens, UniProt O43525+O43526)               Emax                 175
 6  Cc1cc(N2CCOCC2)cc(C2CC2)c1C(=O)NCc1ccc(F)cc1  KCNQ2/3 channels (Homo sapiens, UniProt O43525+O43526)               Emax                 169
 7  Cc1cc(N2CCOCC2)cc(C2CC2)c1C(=O)NCc1ccc(C(F)(F)F)cn1  KCNQ2/3 channels (Homo sapiens, UniProt O43525+O43526)               Emax                  89
 8  CCSc1cc(N2CCOC[C@H]2C)cc(C)c1C(=O)NCCCC(C)(C)C  KCNQ2/3 channels (Homo sapiens, UniProt O43525+O43526)               Emax                 246
 9  CCSc1cc(N2CCOCC2)cc(C)c1C(=O)NCc1cccc(F)c1  KCNQ2/3 channels (Homo sapiens, UniProt O43525+O43526)               Emax                 163
10  Cc1cc(N2CCOCC2)cc(C(F)F)c1C(=O)NCc1ccc(Cl)cc1  KCNQ2/3 channels (Homo sapiens, UniProt O43525+O43526)               Emax                 144
11  CCOc1cc(N2CCOCC2)cc(C)c1C(=O)NCc1ccc(Cl)cc1  KCNQ2/3 channels (Homo sapiens, UniProt O43525+O43526)               Emax                 141
12  Cc1cc(N2CCCCC2)cc(C(F)(F)F)c1C(=O)NCc1cccc(F)c1  KCNQ2/3 channels (Homo sapiens, UniProt O43525+O43526)               Emax                 197
13  CCS(=O)(=O)c1cc(N2CCOCC2)cc(C)c1C(=O)NCc1ccc(Cl)cc1  KCNQ2/3 channels (Homo sapiens, UniProt O43525+O43526)               Emax                  88
14  Cc1cc(N2CCOCC2)cc(C(C)C)c1C(=O)NCc1ccc(C(F)(F)F)cc1  KCNQ2/3 channels (Homo sapiens, UniProt O43525+O43526)               Emax                 148
15  Cc1cc(N2CCOCC2)cc(C2CCCC2)c1C(=O)NCc1ccc(Cl)cc1  KCNQ2/3 channels (Homo sapiens, UniProt O43525+O43526)               Emax                 194
16  Cc1cc(N2CCOCC2)cc(C(C)C)c1C(=O)NCC(O)CC(C)(C)C (stereo not drawn)  KCNQ2/3 channels (Homo sapiens, UniProt O43525+O43526)               Emax                 216
17  Cc1cc(N2CCCC2)cc(C(F)(F)F)c1C(=O)NCc1cccc(F)c1  KCNQ2/3 channels (Homo sapiens, UniProt O43525+O43526)               Emax                 156
18  Cc1cc(N2CCOCC2)cc(C(C)C)c1C(=O)NCc1ccc(F)cc1  KCNQ2/3 channels (Homo sapiens, UniProt O43525+O43526)               Emax                 179
